This collection of values is drawn from patent US20250188176A1.

TGT: T1, Extracellular domain (ECD) of the canine IL-4 receptor alpha-AviTag-His Tag (canine)
T1 construct: expressed in CHO cells; also called canine IL-4RA; canine IL4Ra
T1 chain: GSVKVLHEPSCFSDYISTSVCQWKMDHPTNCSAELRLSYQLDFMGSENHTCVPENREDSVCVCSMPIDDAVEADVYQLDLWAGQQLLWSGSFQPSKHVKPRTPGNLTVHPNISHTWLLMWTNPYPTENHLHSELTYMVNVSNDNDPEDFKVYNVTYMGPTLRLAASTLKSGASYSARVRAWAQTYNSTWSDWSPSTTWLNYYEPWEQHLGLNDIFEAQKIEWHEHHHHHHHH
METHOD DESCRIPTION: SPR, IgG captured via anti-dog Fc;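 also: biacore T200 SPR with antibodies captured on CM5 chip bearing anti-dog Fc, 120 s association then 600 s dissociation, double-referenced sensorgrams fitted with 1:1 binding model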
Catalogue of binders with associated koff
PARAMETER: koff (s⁻¹)

BINDER | UNIT SYMBOL | REPORTED
FJP05A03-H + FJP10A09-L (antibody, V domains shown) VH: EVQLVESGGDLVKPGGSLRLSCVASGLPFRDYAMAWVRQAPGKGLQWLSLISGSGGKTYYADAVKGRFTISRDNAKNTLYLQMNSLRAEDTAVYYCAVDRLTKTIRPQYYGLWVWGQGTLVTVSS VL: DIVMTQTPLSLSVSPGETASISCRSSQSLTYSIGYNYLDWYMQKPGQSPQGLIYLGSKRASGVSDRFSGSGSGADFTLKISRVEADDAGVYYCMQGLHSPLSFGQGTKLEIKR | s⁻¹ | 8.87e-05
GFmix_PTH-H + FJP10A09-L (antibody, V domains shown) VH: EVQLVESGGDLVKPGGSLRLSCVASGFPFRDYAMTWVRQAPGKGLQWLSLISGSGGKTYYADAVKGRFTISRDNAKNTLYLQMNSLRAEDTAVYYCAVDRLTKTIRPQYYGLWHWGQGTLVTVSS VL: DIVMTQTPLSLSVSPGETASISCRSSQSLTYSIGYNYLDWYMQKPGQSPQGLIYLGSKRASGVSDRFSGSGSGADFTLKISRVEADDAGVYYCMQGLHSPLSFGQGTKLEIKR | s⁻¹ | 7e-05
TB640_005 (antibody, V domains shown, caninized IgG; also called TB640_005-H + TB640_005-L) VH: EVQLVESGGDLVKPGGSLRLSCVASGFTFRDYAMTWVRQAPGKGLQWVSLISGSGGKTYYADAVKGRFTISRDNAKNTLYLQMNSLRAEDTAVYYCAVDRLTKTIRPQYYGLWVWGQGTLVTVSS VL: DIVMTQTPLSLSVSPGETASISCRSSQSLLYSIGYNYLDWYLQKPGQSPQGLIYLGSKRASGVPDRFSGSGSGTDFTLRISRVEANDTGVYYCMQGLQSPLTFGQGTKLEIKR | s⁻¹ | 0.000486
FJP05A03-H + GFmix3_KTHS-L (antibody, V domains shown) VH: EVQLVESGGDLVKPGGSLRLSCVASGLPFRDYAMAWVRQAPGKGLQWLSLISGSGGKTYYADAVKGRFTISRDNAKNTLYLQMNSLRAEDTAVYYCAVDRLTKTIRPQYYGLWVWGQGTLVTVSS VL: DIVMTQTPLSLSVSPGETASISCRSSKSLTYSIGYNYLDWYMQKPGQSPQGLIYLGSKRASGVSDRFSGSGSGADFTLKISRVEADDAGVYYCMQGLHSPLSFGQGTKLEIKR | s⁻¹ | 8.68e-05
